Test: Dynamic light scattering of LNPs: Z-average diameter, number average diameter, PDI
Format: physicochemical
Conditions: LNP, sg:mRNA 1:1.3, N/P about 6, 50/9/38/3; Table 2, Experiment 1
Description: Dynamic Light Scattering (“DLS”) is used to characterize the polydispersity index (“PDI”) and size of the LNPs of the present disclosure. DLS measures the scattering of light that results from subjecting a sample to a light source. PDI, as determined from DLS measurements, represents the distribution of particle size (around the mean particle size) in a population, with a perfectly uniform population having a PDI of zero. […]
READOUT: Z-avg (nm)
Answers are plain numbers, in nm.

[
  {
    "COMPOUND": "CCCCC/C=C\\C/C=C\\CCCCCCCC(=O)OCC(COC(=O)CCC(OCCCCCCCC)OCCCCCCCC)COC(=O)OCCCN(C)CCN(C)C (stereo not drawn)",
    "NUMERIC VALUE": 72.11
  },
  {
    "COMPOUND": "CCCCC/C=C\\C/C=C\\CCCCCCCC(=O)OCC(COC(=O)CCC(OCCCCCCCC)OCCCCCCCC)COC(=O)NCCCN(C)C (stereo not drawn)",
    "NUMERIC VALUE": 56.86
  }
]

Could I get Z-avg (nm) for every one of these entries?
1. CCCCC/C=C\C/C=C\CCCCCCCC(=O)OCC(COC(=O)CCC(OCCCCCCCC)OCCCCCCCC)COC(=O)OCCCN(CC)CC (stereo not drawn) [Compound 1, reference compound]
2. CCCCC/C=C\C/C=C\CCCCCCCC(=O)OCC(COC(=O)CCC(OCCCCCCCC)OCCCCCCCC)COC(=O)OCCCN1CCCC1 (stereo not drawn)
3. CCCCC/C=C\C/C=C\CCCCCCCC(=O)OCC(COC(=O)CCC(OCCCCCCCC)OCCCCCCCC)COC(=O)OCCCN(C)C (stereo not drawn)
4. CCCCC/C=C\C/C=C\CCCCCCCC(=O)OCC(COC(=O)CCC(OCCCCCCCC)OCCCCCCCC)COC(=O)OCC1CCCN(CC)C1 (stereo not drawn)

Result block:
1: 77.85; 2: 86.16; 3: 75.64; 4: 66.28

###

test: Dynamic light scattering of LNPs: Z-average diameter, number average diameter, PDI; format: physicochemical; conditions: LNP with G534 sgRNA and Cas9 mRNA, sg:mRNA 1:2, experiment 109
Exercise: for every item that follows, state its recorded Number mean (nm).
Give bare numbers, in nm.

[
  {
    "COMPOUND": "CCCCCCCCCC(C)OC(=O)CCCCCCCC(=O)OCC(COC(=O)CCC(OCCCCCCCC)OCCCCCCCC)COC(=O)OCCCN(CC)CC (stereo not shown)",
    "UNITS LABEL": "nm",
    "NUMERIC VALUE": 77
  }
]

Could I get Number mean (nm) for every one of these entries?
1. CCCCC/C=C\C/C=C\CCCCCCCC(=O)OCC(COC(=O)CCC(OCCCCCCCC)OCCCCCCCC)COC(=O)NCCN(CC)CC (stereo not shown)
2. CCCCCCCCCCOC(=O)CCCCCCCC(=O)OCC(COC(=O)CCC(OCCCCCCCC)OCCCCCCCC)COC(=O)OCCCN(CC)CC (stereo not shown)
3. CCCCC/C=C\C/C=C\CCCCCCCC(=O)OCC(COC(=O)CCC(OCCCCCCCC)OCCCCCCCC)COC(=O)OCCCN(CC)CC (stereo not shown) [Compound 1, reference compound]

Result block:
[62, 75, 73]
